- PROTOCOL_SUMMARY: Solubility of micronized FPV in different organic solvents (visual inspection)
- Assay type: physicochemical
- MEASUREMENT_SETUP: organic solvent or mixture, thermodynamic from solid, solvent PPG 400, read-out: Solubility, Visual Inspection Conc.
- Description: In order to check for a possible improvement of FPV solubility in an aqueous solvent, it was decided to follow the protocol of WO2017009480. As a first task it was necessary to find a suitable organic solvent for pre-dissolution of FPV prior to adding the pre-dissolved FPV to the buffered aqueous solvent. The results are depicted in Table 1 Table 1: Solubility of micronized FPV in different organic solvents
VALUE_TYPE: solubility (mg/mL)

>>> value_reported("NC(=O)c1nc(F)cnc1O [FPV, 6-fluoro-3-hydroxypyrazine-2-carboxamide]")
25

###

- PROTOCOL_SUMMARY: Solubility of micronized FPV in different organic solvents (visual inspection)
- Type: physicochemical
- MEASUREMENT_SETUP: organic solvent or mixture, thermodynamic from solid, solvent PEG 400, read-out: Solubility, Visual Inspection Conc.
- Text: In order to check for a possible improvement of FPV solubility in an aqueous solvent, it was decided to follow the protocol of WO2017009480. As a first task it was necessary to find a suitable organic solvent for pre-dissolution of FPV prior to adding the pre-dissolved FPV to the buffered aqueous solvent. The results are depicted in Table 1 Table 1: Solubility of micronized FPV in different organic solvents
VALUE_TYPE: solubility

>>> value_reported("NC(=O)c1nc(F)cnc1O [FPV, 6-fluoro-3-hydroxypyrazine-2-carboxamide]")
"90 mg/mL"

###

- PROTOCOL_SUMMARY: Solubility of micronized FPV in different organic solvents (visual inspection)
- Assay type: physicochemical
- MEASUREMENT_SETUP: organic solvent or mixture, thermodynamic from solid, solvent Glycerol, read-out: Solubility, Visual Inspection Conc.
VALUE_TYPE: solubility

>>> value_reported("NC(=O)c1nc(F)cnc1O [FPV, 6-fluoro-3-hydroxypyrazine-2-carboxamide]")
"< 33 mg/mL"
